B1: TSN (parent)
chain: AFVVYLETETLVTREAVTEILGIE

variants of: B1; test: protein stability index of a GFP-peptide fusion (GPS, HEK-293T) (PSI 1-6); higher = more stable; conditions: c terminus: a fixed tail appended;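 note: lentivirally expressed fusions sorted by FACS into six bins by GFP to DsRed ratio, PSI derived from sequencing read proportions per bin multiplied by bin number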
Think of 2 as a floor: if protein stability index stands on it or above, it is rule met; beneath it, rule not met.

>  <sequenceVariant>
T18P

>  <label>
rule met

$$$$
>  <sequenceVariant>
Y5S

>  <label>
rule not met

$$$$
>  <sequenceVariant>
I23L

>  <label>
rule met

$$$$
>  <sequenceVariant>
F2P

>  <label>
rule met

$$$$
>  <sequenceVariant>
V4P

>  <label>
rule met

$$$$
>  <sequenceVariant>
A1P

>  <label>
rule met

$$$$
>  <sequenceVariant>
T13W

>  <label>
rule not met

$$$$
>  <sequenceVariant>
G22N

>  <label>
rule met

$$$$
>  <sequenceVariant>
Y5L

>  <label>
rule met

$$$$
>  <sequenceVariant>
I20P

>  <label>
rule not met

$$$$
